Structures can show the parent of a compound that is named as a salt.
Reported melting point is given for each of the following molecules.
measurement label: melting point

                                   molecule  measurement_label     data_value
0  CCCCN(C)CCc1ccc(Nc2ncc3c(n2)-c2ccccc2C(c2ccccc2C(F)(F)F)C3)cc1 (stereo not shown) [Example 68]      melting point    80 to 82 °C
1  Clc1ccc([C@@H]2Cc3cnc(Nc4ccccc4)nc3-c3ccccc32)cc1Cl [Example 15]      melting point         159 °C
2  CC(O)CN(CCc1ccc(Nc2ncc3c(n2)-c2ccccc2C(c2cccc(Br)c2)C3)cc1)Cc1ccccc1 (stereo not shown) [Example 39]      melting point    90 to 92 °C
3  CN(CCc1ccccc1)CCc1cccc(Nc2ncc3c(n2)-c2ccccc2[C@H](c2ccc(Cl)c(Cl)c2)C3)c1 (as salt: hydrochloride)      melting point  154 to 157 °C

---

Tested on: SNU-16
assay text: MTS assay, SNU-16
Assay type: cell-based
condition notes: Homo sapiens, SNU-16, read-out: MTS IC50
pIC50: −log10 of the molar value.
measurement label: pIC50

                                   compound  measurement_label  data_value
0  CCN(CC)CCNC(=O)c1c(C)[nH]c(/C=C2\C(=O)Nc3ccc(F)cc32)c1C [Sunitinib, reference compound]              pIC50        5.96

---

target: FGFR2 kinase (Homo sapiens, UniProt P21802, N549H)
Construct: purchased Millipore 14-742
Sequence (P21802 456-770 N549H limits assumed): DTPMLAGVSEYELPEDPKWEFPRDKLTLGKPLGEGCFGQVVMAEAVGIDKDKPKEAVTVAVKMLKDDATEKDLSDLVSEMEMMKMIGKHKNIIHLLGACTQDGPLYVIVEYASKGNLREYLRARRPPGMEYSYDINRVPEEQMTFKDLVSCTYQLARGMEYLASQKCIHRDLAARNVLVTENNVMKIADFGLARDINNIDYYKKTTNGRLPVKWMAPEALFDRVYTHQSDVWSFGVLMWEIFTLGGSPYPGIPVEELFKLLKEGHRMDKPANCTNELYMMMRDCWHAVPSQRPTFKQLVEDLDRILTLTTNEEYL
assay text: fluorescent ELISA FGFR2 kinase assay (biochemical)
condition notes: FGFR2 (N549H); read-out: Biochemical data (IC50-μM) FGFR2 (N549H)
Counter-ions that a name gives are not always drawn.
Reported log10 of IC50 is given for each of the following compounds.
measurement label: log10 of IC50 (log10 of the value in µM)

In [3]: df
Out[3]:
                                    compound                                    target  measurement_label  data_value
 0  COCCNCc1cccc(Nc2ncc3c(n2)-c2ccccc2[C@H](c2ccccc2F)C3)c1 [Example 178, hydrochloride]  FGFR2 kinase (Homo sapiens, UniProt P21802, N549H)      log10 of IC50       -1.59
 1  COCCNCCc1cc(Nc2ncc3c(n2)-c2ccccc2[C@H](c2ccccc2F)C3)ccc1F [Example 173, hydrochloride salt]  FGFR2 kinase (Homo sapiens, UniProt P21802, N549H)      log10 of IC50       -1.44
 2  CCCCNCCc1cc(Nc2ncc3c(n2)-c2ccccc2[C@H](c2ccccc2F)C3)ccc1F [Example 171, hydrochloride salt]  FGFR2 kinase (Homo sapiens, UniProt P21802, N549H)      log10 of IC50       -1.45
 3  CN(CCc1ccccc1)CCc1ccc(Nc2ncc3c(n2)-c2ccccc2[C@H](c2ccccc2F)C3)cc1 [Example 93, hydrochloride salt]  FGFR2 kinase (Homo sapiens, UniProt P21802, N549H)      log10 of IC50       -0.53
 4  Fc1ccccc1[C@@H]1Cc2cnc(Nc3cccc(CCN4CCNCC4)c3)nc2-c2ccccc21  FGFR2 kinase (Homo sapiens, UniProt P21802, N549H)      log10 of IC50       -1.29
 5  CN1CCN(CCc2cccc(Nc3ncc4c(n3)-c3ccccc3[C@H](c3ccccc3F)C4)c2)CC1 [Example 161, hydrochloride]  FGFR2 kinase (Homo sapiens, UniProt P21802, N549H)      log10 of IC50       -1.76
 6  COCCN1CCN(CCc2cccc(Nc3ncc4c(n3)-c3ccccc3[C@@H](c3ccccc3F)C4)c2)CC1  FGFR2 kinase (Homo sapiens, UniProt P21802, N549H)      log10 of IC50       -1.33
 7  OCc1cccc(Nc2ncc3c(n2)-c2ccccc2[C@H](c2ccccc2F)C3)c1  FGFR2 kinase (Homo sapiens, UniProt P21802, N549H)      log10 of IC50       -0.96
 8  COCCNCCc1ccc(Nc2ncc3c(n2)-c2ccccc2[C@H](c2ccc(F)c(F)c2)C3)cc1 [Example 86, hydrochloride]  FGFR2 kinase (Homo sapiens, UniProt P21802, N549H)      log10 of IC50       -0.57
 9  CCCCN(C)CCc1cc(Nc2ncc3c(n2)-c2ccccc2[C@H](c2ccccc2F)C3)ccc1F [Example 172, hydrochloride salt]  FGFR2 kinase (Homo sapiens, UniProt P21802, N549H)      log10 of IC50       -1.04
10  Brc1ccc([C@H]2Cc3cnc(Nc4ccc(CCN5CCCCC5)cc4)nc3-c3ccccc32)cc1 [Example 108, hydrochloride salt]  FGFR2 kinase (Homo sapiens, UniProt P21802, N549H)      log10 of IC50       -0.45
11  OCCc1cc(Nc2ncc3c(n2)-c2ccccc2[C@H](c2ccccc2F)C3)ccc1F  FGFR2 kinase (Homo sapiens, UniProt P21802, N549H)      log10 of IC50       -0.49
12  CCCCN(C)CCc1ccc(Nc2ncc3c(n2)-c2ccccc2[C@H](c2ccc(Cl)c(Cl)c2)C3)cc1 [Example 105, hydrochloride salt]  FGFR2 kinase (Homo sapiens, UniProt P21802, N549H)      log10 of IC50       -0.30
13  CN1CCN(CCc2cc(Nc3ncc4c(n3)-c3ccccc3[C@H](c3ccccc3F)C4)ccc2F)CC1 [Example 174, hydrochloride salt]  FGFR2 kinase (Homo sapiens, UniProt P21802, N549H)      log10 of IC50       -1.36
14  COCCN1CCN(CCc2cc(Nc3ncc4c(n3)-c3ccccc3[C@H](c3ccccc3F)C4)ccc2F)CC1 [Example 175, hydrochloride salt]  FGFR2 kinase (Homo sapiens, UniProt P21802, N549H)      log10 of IC50       -1.35
15  Brc1ccc([C@@H]2Cc3cnc(Nc4ccc(CCN5CCCCC5)cc4)nc3-c3ccccc32)cc1 [Example 103, hydrochloride salt]  FGFR2 kinase (Homo sapiens, UniProt P21802, N549H)      log10 of IC50       -0.75
16  CN(CCc1ccc(Nc2ncc3c(n2)-c2ccccc2[C@H](c2ccc(F)cc2)C3)cc1)C1CCCCC1  FGFR2 kinase (Homo sapiens, UniProt P21802, N549H)      log10 of IC50       -0.59

Data origin: patent US8357694B2
